- Target: UniProtKB P07948
- Sequence (P07948 whole entry): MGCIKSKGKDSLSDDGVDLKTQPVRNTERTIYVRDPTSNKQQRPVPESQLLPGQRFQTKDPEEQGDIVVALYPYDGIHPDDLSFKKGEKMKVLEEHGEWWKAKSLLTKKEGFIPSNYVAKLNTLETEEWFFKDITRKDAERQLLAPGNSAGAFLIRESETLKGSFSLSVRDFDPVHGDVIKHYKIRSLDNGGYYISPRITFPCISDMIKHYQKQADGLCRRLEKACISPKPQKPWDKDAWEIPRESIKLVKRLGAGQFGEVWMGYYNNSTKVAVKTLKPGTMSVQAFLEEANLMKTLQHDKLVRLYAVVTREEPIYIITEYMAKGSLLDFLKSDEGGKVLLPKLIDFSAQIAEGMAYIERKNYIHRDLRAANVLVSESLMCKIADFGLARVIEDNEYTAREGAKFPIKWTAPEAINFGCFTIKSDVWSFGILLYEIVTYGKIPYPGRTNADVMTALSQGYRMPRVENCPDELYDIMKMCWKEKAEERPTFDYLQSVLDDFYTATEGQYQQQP
Measure Name: IC50 (nM)
Entry rule: numbers only, all in nM.

Form field IC50, entry "Cn1cc(-c2cccc(-c3cnc(N)c(C(=O)N[C@H]4C5CC6CC4C[C@@](O)(C6)C5)n3)c2)cn1" : 325

----------
Each item that follows carries a reported Papp B→A.
- Protocol Notes: Apparent permeability across basolateral to apical side in human Caco2 cells
- Type: ADME, cell-based
- Particulars: Caco-2
Entry rule: numbers only, all in ×10⁻⁶ cm/s.

Smiles Entry | Papp B→A (×10⁻⁶ cm/s)
Cn1cc(-c2cccc(-c3cnc(N)c(C(=O)N[C@H]4C5CC6CC4C[C@@](O)(C6)C5)n3)c2)cn1 | 13

Lab note: next compound to report on.
Form field Papp B→A, entry "CC(C)(NC(=O)c1nc(-c2cccc(-c3ccc(N)nc3)c2)cnc1N)C1CCNCC1" : 2.38

// provenance: ChEMBL document CHEMBL2016552
